- assay.target: Dual specificity tyrosine-phosphorylation-regulated kinase 1A (Rattus norvegicus) (UniProt Q63470)
- assay.explanation: Inhibition of rat DYRK1alpha assessed as residual activity at 10 uM relative to control
Assignment: determine reported Activity for the given compounds.
# unit: % | format: bare number

QUERY: Look at this compound and give its reported Activity. NC(=O)c1ccc(-c2nc(-c3ccc4c(c3)OCCO4)c(-c3ccccn3)[nH]2)cc1
RESULT: 86

QUERY: Name the reported Activity value associated with the compound CC(=O)Nc1nccc(-c2c(-c3ccccc3)noc2C)n1
RESULT: 102

QUERY: What measured Activity goes with CC(=O)Nc1cccc(-c2cnc3[nH]nc(C)c3c2)c1 ?
RESULT: 39.9

QUERY: // returns reported Activity for input CCCC(=O)Nc1n[nH]c2ncc(-c3cccnc3)cc12
RESULT: 2

Source of measurements: ChEMBL document CHEMBL2429821
